Consider the following compounds; for each one, report its growth.
- Test system: HT29 colon
- Assay Info: NCI-60 one-dose screen, 48 h (100 = growth as untreated, 0 = no growth, -100 = all killed)
- Assay Setup: 10 µM
The panel holds about 83,000 compounds, 20% with a hit somewhere; the sample as a whole holds those more often.
Answers are plain numbers, in %.

Solved cases (10 shown):
{"Compound": "CC1(C)CCC(=NNC(N)=S)CC1", "System Under Test": "HT29 colon", "Unit Name": "%", "Val": 95.1}
{"Compound": "CC1=C(N2CCOCC2)C(N2CCOCC2)=C(C)C(=O)C1=O", "System Under Test": "HT29 colon", "Unit Name": "%", "Val": 111}
{"Compound": "N#Cc1cc(-c2cc3ccccc3o2)oc1N", "System Under Test": "HT29 colon", "Unit Name": "%", "Val": 7.97}
{"Compound": "Cc1cc(N(CCCNc2ccnc3cc(Cl)ccc23)Cc2cccs2)nc(Cl)n1", "System Under Test": "HT29 colon", "Unit Name": "%", "Val": 7.06}
{"Compound": "COc1ccc(-c2nnc(-c3c(-c4ccccc4)nc4ncccn34)o2)cc1OC", "System Under Test": "HT29 colon", "Unit Name": "%", "Val": 102}
{"Compound": "COc1cc(NC(=O)c2sc3nc4c(cc3c2N)C(O)CCC4)cc(OC)c1 (stereo not drawn)", "System Under Test": "HT29 colon", "Unit Name": "%", "Val": 67}
{"Compound": "COc1ccc(S(=O)(=O)NCCCNc2nccc(-c3c(-c4ccc(F)cc4)nc4sccn34)n2)cc1", "System Under Test": "HT29 colon", "Unit Name": "%", "Val": 11}
{"Compound": "CCn1cc(C(=O)O)c(=O)c2cnc(N3CCCC3)nc21", "System Under Test": "HT29 colon", "Unit Name": "%", "Val": 111}
{"Compound": "O=C1/C(=C\\c2cn(C(=O)c3ccc(Cl)cc3)c3ccccc23)c2ccccc2N1C(=O)c1ccc(Cl)cc1", "System Under Test": "HT29 colon", "Unit Name": "%", "Val": 70.4}
{"Compound": "COc1cc(C)ccc1C(=O)c1ccc(C)cc1OC", "System Under Test": "HT29 colon", "Unit Name": "%", "Val": 2.74}

Below is a list of compounds. For each, state its recorded growth.
1. Fc1ccc(-c2nnc(-c3c(-c4ccc(F)cc4)nc4ccccn34)o2)cc1
2. CCN(CC)CCCOCCCNc1cc(OC)cc2cccnc12
3. N#Cc1c(C#N)c(SSc2c(C#N)c(C#N)c(N)n2-c2ccccc2)n(-c2ccccc2)c1N

79.2
96.1
101

====

- System: MDA-MB-231 breast
- Assay Info: NCI-60 one-dose screen, 48 h
- Assay Setup: 10 µM
The panel holds about 83,000 compounds, 20% with a hit somewhere; the sample as a whole holds those more often. Active and inactive are the calls of the source. The calls were made as follows: active = growth percent below 10; inactive = the rest.
Outcomes you can answer with include only these: Y (active), N (inactive)

{"Molecule": "COc1ccc(C2CC(c3ccc(N(C)C)cc3)=NN2c2ccc(S(N)(=O)=O)cc2)cc1 (stereo not given)", "System Under Test": "MDA-MB-231 breast", "Answer Label": "N"}
{"Molecule": "CCCCCCCCCCCC[n+]1ccc(C(N)=O)cc1", "System Under Test": "MDA-MB-231 breast", "Answer Label": "N"}
{"Molecule": "Cc1ccc(N=Nc2c(N)nc(N)[nH]c2=O)cc1C", "System Under Test": "MDA-MB-231 breast", "Answer Label": "N"}
{"Molecule": "CN(C)c1ccc(/C=C/C=N/NC(=O)c2cc(O)c(O)c(O)c2)cc1", "System Under Test": "MDA-MB-231 breast", "Answer Label": "N"}
{"Molecule": "COc1cc(Cl)cc(-c2nn(-c3cccc(NC(=O)c4ccc(Cl)c(Cl)c4)c3)cc2-c2ccncc2)c1", "System Under Test": "MDA-MB-231 breast", "Answer Label": "N"}

# outcome recorded in this test, key = CSc1nc(=O)n(Cc2ccc(Cl)cc2)c(=O)[nH]1
N

# outcome recorded in this test, key = C#Cc1ccc(-n2c(/C=C/c3ccc4ccccc4n3)nc3ncccc3c2=O)cc1
Y

# outcome recorded in this test, key = COc1cc(/C=N/NC(=O)c2ccccc2Nc2cccc(C(F)(F)F)c2)cc(OC)c1OC
N

# outcome recorded in this test, key = Nc1nccc(Nc2ccccc2)n1
N

# outcome recorded in this test, key = CCN1CCC2(CC1)OC(c1ccccc1)C(c1ccccc1)O2 (stereo not given)
N

====

- Test system: NCI-H522 lung
- Assay Info: NCI-60 one-dose screen, 48 h
- Assay Setup: 10 µM
Compounds without any hit were thinned out: in the full panel of roughly 83,000, 20% have a hit. Active and inactive are the calls of the source. Rule for the calls: active = growth percent below 10; inactive = the rest.
Outcomes you can answer with include only these: yes (active), no (inactive)

# outcome recorded in this test, key = COc1ccc(-c2nn(-c3cccc(NC(=O)c4ccc(N5CCOCC5)c(C(F)(F)F)c4)c3)cc2-c2ccncc2)cc1Cl
no

# outcome recorded in this test, key = COC(=O)[C@@H]1[C@H](O)[C@H](C)[C@H](O)[C@@](C)(O)/C=C\C=C(C)C(=O)Nc2c(C)c(OC(C)=O)c3c(c2O)C(=O)C(C)=C2OCOC(=C23)C(C)=C[C@@](C)(O)[C@H](O)[C@@H](C)[C@H]1OC(C)=O
no

# outcome recorded in this test, key = CC12O[C@H](C[C@@H](OC(=O)c3ccccc3)[C@H]1O)n1c3ccccc3c3c4c(c5c6ccccc6n2c5c31)C(=O)NC4=O
no

# outcome recorded in this test, key = CCCCCC(=O)c1ccc(OCCCN2CCN(C(=O)OCC)CC2)cc1
no

# outcome recorded in this test, key = CCCCCCN(CCCCCC)CC(O)c1ccc2c3c(cccc13)CC2 (centres undefined)
no

# outcome recorded in this test, key = CC(=O)O[C@]1(C)CC[C@H]2[C@H](CNCCc3ccc(Cl)cc3)C(=O)O[C@@H]2C2=C(C)C(=O)C[C@H]21
yes

====

- Test system: HCT-15 colon
- Assay Info: NCI-60 one-dose screen, 48 h (100 = growth as untreated, 0 = no growth, -100 = all killed)
- Assay Setup: 10 µM
About 83,000 compounds went through this panel and 20% of them were active in at least one assay; those are over-represented in the sample as a whole.
Consider the following compounds; for each one, report its growth.
Give bare numbers, in %.

{"Compound": "COc1ccc(-c2nc3sccn3c2-c2nc3c([nH]2)C(=O)c2ccccc2C3=O)cc1", "System Under Test": "HCT-15 colon", "growth, %": 87.8}

Below is a list of compounds. For each, state its recorded growth.
1. COC(=O)[C@@H]1[C@H](O)[C@H](C)[C@H](O)[C@@](C)(O)/C=C\C=C(C)C(=O)Nc2c(C)c(OC(C)=O)c3c(c2O)C(=O)C(C)=C2OCOC(=C23)C(C)=C[C@@](C)(O)[C@H](O)[C@@H](C)[C@H]1OC(C)=O
2. CS(=O)(=O)Nc1ccc(Nc2c3ccccc3nc3cc([N+](=O)[O-])ccc23)cc1
3. CCCCCCCCCCCCC1C/C=C\CCCC(=O)O1 (stereo not given)

1. 74.7
2. 6.81
3. 97.2

Below is a list of compounds. For each, state its recorded growth.
1. Cc1cccc(Cl)c1NC(=O)c1ccc2nc(NC(=O)NC3CCN(C)CC3)sc2c1
2. COc1cc(-c2nc(-c3nnc(-c4ccc(F)c(Cl)c4)o3)c3ccccn23)cc(OC)c1OC
3. O=C(O)C(SC(C(=O)O)c1ccccc1)c1ccccc1 (stereo not given)

1. 101
2. 55.4
3. 99.8

Below is a list of compounds. For each, state its recorded growth.
1. CC(=O)n1c(-c2ccc(Cl)c(Cl)c2)cn(-c2ccc(Cl)cc2)c1=O
2. CCN(CCCCCCN1CC(=O)N(CCCCCCN(CC)Cc2ccccc2OC)CC1=O)Cc1ccccc1OC
3. COc1ccc(/C(=C2\O[C@@H]([C@H]3COC(C)(C)O3)[C@H]3OC(C)(C)O[C@@H]23)c2cc(OC)c(OC)c(OC)c2)cc1O
4. COc1ccc(-n2c(SCc3cc(OC)c(OC)c(OC)c3)nc3ccc(C)cc3c2=O)cc1

1. 59
2. 83.5
3. 26.9
4. 33.6

Below is a list of compounds. For each, state its recorded growth.
1. COc1cc(NC(=O)CCSc2nc3ccc(Cl)cc3c(=O)n2Cc2ccccc2)cc(OC)c1OC
2. CC(=O)N1N=C(c2ccc(Cl)cc2)CC1c1sc(Cl)nc1Cl (stereo not given)
3. CN(C)CCN=c1nc2c(c(N)n1-c1ccccc1)c(=S)n(-c1ccccc1)c(=S)n2-c1ccccc1
4. Clc1ccc(/C=C2\CCCC3=C2N=C2SC=NN2C3c2ccc(Cl)cc2)cc1 (stereo not given)
5. CCN(CC)CCSCCN(CC)CC
6. COc1ccc(OC)c(NC(=O)c2sc3nc4c(cc3c2N)C(=O)CCC4)c1
7. N#Cc1cccc(OCc2nc(N)nc(N)c2-c2ccc(Cl)c(Cl)c2)c1
8. COc1cc(Cl)cc(-c2nn(-c3cccc(NC(=O)Nc4ccc(Cl)c(C(F)(F)F)c4)c3)cc2-c2ccncc2)c1

1. 72.5
2. 96.3
3. 18.8
4. 87.3
5. 97.9
6. 80.6
7. 17.7
8. 7.28

Recorded growth of Cc1cccc2c(NCCN(C)C)c3cccc(C(=O)NCCN(C)C)c3nc12 , please.
-46.5
